Target: T1, human CDH17, full length, expressed on cells (HEK293-hCDH17); AsPC-1, HCT-8, AGS, LoVo, KATO III, HT-29 tumor … (human, UniProt Q12864 23-832)
T1 construct: also called human CDH17 expressed on tumor cells
T1 sequence: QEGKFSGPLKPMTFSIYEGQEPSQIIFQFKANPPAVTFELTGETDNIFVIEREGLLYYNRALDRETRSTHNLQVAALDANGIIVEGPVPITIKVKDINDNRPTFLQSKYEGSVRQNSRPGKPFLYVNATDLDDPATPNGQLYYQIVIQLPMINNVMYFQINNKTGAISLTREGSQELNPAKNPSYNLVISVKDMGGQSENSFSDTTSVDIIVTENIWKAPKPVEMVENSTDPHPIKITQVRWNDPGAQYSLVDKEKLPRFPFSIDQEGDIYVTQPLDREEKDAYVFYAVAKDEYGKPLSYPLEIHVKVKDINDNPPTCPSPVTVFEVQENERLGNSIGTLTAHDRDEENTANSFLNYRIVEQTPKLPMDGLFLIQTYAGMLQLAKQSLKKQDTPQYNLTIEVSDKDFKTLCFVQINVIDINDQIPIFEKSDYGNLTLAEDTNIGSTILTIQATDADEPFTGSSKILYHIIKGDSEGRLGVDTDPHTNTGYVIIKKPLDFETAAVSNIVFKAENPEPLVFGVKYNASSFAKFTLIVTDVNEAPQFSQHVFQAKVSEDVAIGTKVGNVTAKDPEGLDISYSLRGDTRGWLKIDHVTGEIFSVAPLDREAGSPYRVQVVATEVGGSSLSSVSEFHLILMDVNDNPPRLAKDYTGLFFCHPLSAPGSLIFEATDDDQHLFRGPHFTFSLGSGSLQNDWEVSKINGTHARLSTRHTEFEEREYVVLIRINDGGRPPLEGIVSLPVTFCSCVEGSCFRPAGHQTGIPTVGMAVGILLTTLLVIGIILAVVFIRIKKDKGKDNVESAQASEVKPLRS
Experiment: flow cytometry, HEK293-hCDH17 cells
assay_metric: binding result

# binder, binding result
rows = [
    ("67A11B11 chimeric mAb (antibody, V domains shown, Mouse variable regions fused to human IgG1 constant region) VH: EIQLQQSGPELVKPGASVKVSCKASGYAFTTYNMYWVKQSHGQSLEWIGYIDPYNGVTIYNQKFKGTATLTVDKSSSTAYMHLNSLSSEDSAVYYCTITAATLDAMDYWGQGTSVTVSS VL: DIVMTQSHKFMSTSVGDRVSITCKASQNVATAVAWYQQKPGQSPKVLIYWTSTRHNGVPDRFTGSGSGTDFTLTISNVQSEDLADYFCQQYNSHPLTFGAGTRLELK", "binds"),
    ("155B11C6 chimeric mAb (antibody, V domains shown, Mouse variable regions fused to human IgG1 constant region) VH: QVQLQQSGAELARPGASVKMSCKASGYTFTSYTMHWVKQRPGQGLEWIGYIDPKSDYNYYNQKFKDKATLTADKSSSTAYMQLSGLTSEDSTVYYCARGFFKGYFDVWGAGTTVTVSS VL: EIVLTQSPPLMAASPGEKVTITCSVSSSISSSNLHWYQQKSETSPKPWIYGTSNLASGVPIRFSGSGSGTSYSLTISSMEAEDAATYYCQQWTSYPFTFGAGTKLELK", "binds"),
    ("16C18 chimeric mAb (antibody, V domains shown, also called 16C8) VH: QVQLQQSGAELAKPGTSVKMSCKASGYNFTNYWMNWVKQRPGQGLEWIGTFNPSYGYTEYNQKFKDKAILTADKSSSTAYMQLNSLTSEDSAVYYCARRSSHFDYWGQGTTLTVSS VL: DIVMSQSPSSLAVSAGEKVTMSCKSSQSLLNSRTRTNYLAWYQQKPGQSPKLLIYWASTRESGVPDRFTGSGSGTDFTLTISSVQAEDLAVYYCKQSYNLPTFGGGTKLEIK", "binds"),
    ("61C7F12-z10 (antibody, V domains shown, Humanized, human IgG1 constant region; also called 61C7F12 HU-VH1-1 / HU-VL2-0) VH: EVQLVESGGGLVKPGGSLRLSCAASGFTFSSYAMSWVRQAPGKGLEWVATINIGGSYTYYPDSVKGRFTISRDNAKNSLYLQMNSLRAEDTAVYYCARQEGRYWYFDVWGQGTTVTVSS VL: EIVLTQSPGTLSLSPGERATLSCTASSSVSSSYLHWYQQKPGQAPRLLIYSTSNLASGIPDRFSGSGSGTDFTLTISRLEPEDFAVYYCHQFHRSPYTFGGGTKVEIK", "binds"),
]

Ask | State the recorded binding result for this entry: 61C7F12-z3 (antibody, V domains shown, Humanized, human IgG1 constant region; also called 61C7F12 HU-VH1-0 / HU-VL1-2) VH: EVQLVESGGGLVKPGGSLRLSCAASGFTFSSYAMSWVRQAPGKGLEWVSTINIGGSYTYYPDSVKGRFTISRDNAKNSLYLQMNSLRAEDTAVYYCARQEGRYWYFDVWGQGTTVTVSS VL: DIVLTQSPSFLSASVGDRVTITCTASSSVSSSYLHWYQQKPGKSPKLWIYSTSNLASGVPSRFSGSGSGTEYSLTISSLQPEDFATYYCHQFHRSPYTFGGGTKVEIK
Reply | binds

These entries and their values trace back to patent EP4806514A2.
